Sourced from patent US20110223176A1

- MEASUREMENT_TARGET: T1, human BSG2 (basigin isoform 2) on the cell surface (human, UniProt P35613 140-385)
- T1 construct: Presented on stably transfected BAF3 cells or endogenously on human tumor cell lines (HepG2, MiaPaCa-2, DoHH-2); also called hBSG2; CD147
- T1 sequence: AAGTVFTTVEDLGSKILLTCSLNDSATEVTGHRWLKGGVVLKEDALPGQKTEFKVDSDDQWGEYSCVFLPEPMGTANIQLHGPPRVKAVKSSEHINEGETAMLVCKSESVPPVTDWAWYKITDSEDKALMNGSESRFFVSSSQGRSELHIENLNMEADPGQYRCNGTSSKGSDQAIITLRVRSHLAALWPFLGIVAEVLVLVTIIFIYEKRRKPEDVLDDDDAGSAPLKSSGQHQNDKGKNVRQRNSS
- ASSAY_PROCEDURE: cell-based ECL (MSD) binding on cells expressing human BSG2
- Protocol: Cells were plated at 25,000 cells/well in 25 μl PBS using 96 well MSD high binding plates (MSD, catalogue no. L11XB-3), and incubated at 37° C. for 1 hour. […] After the final wash, plates were incubated with 2×MSD surfactant-free read buffer (catalogue no. R92TD-2) and the signal was detected on a MSD SECTOR Imager 6000. Data were analyzed using Graphpad Prism software and EC₅₀ values were reported. […]
MEASURED_ENDPOINT: pEC50
Hey, just a heads up that pEC50 is the negative log base 10 of the concentration in molar.

Complete the entry with pEC50 for humanized 6A11-3A3 antibody h3A3-6 (VH.1a/VL.1) (antibody, IgG1, V domains shown, IgG1) VH: EVQLVESGGGLVQPGGSLRLSCAASGFTFSNFWMDWVRQAPGKGLEWIAGIRLKSYNYATHYAESVKGRFTISRDDSKSTVYLQMNSLRAEDTAVYYCTDWDGAYWGQGTLVTVSS VL: DIQMTQSPSSLSASVGDRVTITCKASQDVSTDVAWYQQKPGKAPKLLIYSASYRYTGVPSRFSGSGSGTDFTLTISSLQPEDIATYYCQQHYSTPFTFGQGTKLEIK
8.69

In one line, give reported pEC50 of the entry mouse anti-human BSG2 monoclonal antibody ML64-6A11-3A3 (antibody, mouse IgG2a, V domains shown, Hybridoma antibody, mouse IgG2a/kappa; also called 6A11-3A3 parental mouse antibody; Ab 3A3) VH: EVKLEESGGGLVQPGGSMKLSCVASGFTFSNFWMDWVRQSPEKGLEWIAGIRLKSYNYATHYAESVKGRFTISRDDSKSSVYLQMNNLRAEDTGIYYCTDWDGAYWGQGTLVTVSA VL: DIVMTQSHKFMSTSVGDRVSITCKASQDVSTDVAWYQQKPGQSPKLLIYSASYRYTGVPDRFTGSGSGTDFTFTISSVQAEDLAVYYCQQHYSTPFTFGSGTKLEIK .
9.22
